- System: D(1A) dopamine receptor (Homo sapiens)
- Experiment description: D1 CRE-luciferase signal change, two-sided – cell-based, HEK293 D1, dopamine EC30, D1 allosteric modulator project, primary screen (AID 641)
- Reported conditions: dopamine EC30 potentiation, at 10 µM, actives deviate in either direction
Screen size: about 58,000 compounds; about 3,400 (5.9%) were called active.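 The calls were made as follows: active = luminescence count or its row- and column-corrected plate score outside the 99.7% band of the plate's sample wells, on either side; inactive = the rest.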 Shown is part of a subset that was picked to be rich in actives.
// allowed return values: active, inactive

For `CCN(CC)CCOC(=O)c1cc2cc(COC)ccc2o1` , what call appears in the results of this test?
inactive

What would you report for `CCC(=NCc1ccco1)c1c(O)n(Cc2ccccc2)c(=O)[nH]c1=O` ?
active

What would you report for CCOC(=O)C(O)(c1ccc(NC(=O)c2ccco2)c(OC)c1)C(F)(F)F (stereo unspecified) ?
inactive

What would you report for Cc1cc(N2C(=O)C3CCCN3C2c2ccc(Cl)c(Cl)c2)no1 (stereo unspecified) ?
inactive

What would you report for `CCC(=NCCCO)c1c(O)n(-c2ccc(OC)cc2)c(=O)[nH]c1=O` ?
inactive

What would you report for `CCc1cccc2c(C#N)cn(CC(=O)N3CCOCC3)c12` ?
inactive
